TEST_NAME: Drug toxicity assay, propidium iodide exclusion, H727 cells
Assay type: cell-based, human
RECORDED_CONDITIONS: human, 500 μM, 2 days, compared to native H727 cells, read-out: viable cells by PI exclusion
Protocol: Drug Toxicity Assay. Briefly, cells were trypsinized and plated in a 6-well plate at 1-2×10^6 in triplicate and allowed to adhere overnight. […] As a control, DMSO was added. After incubation, the media was removed and cells were trypsinized and added to removed media. Cells were incubated on ice and 2.5 μg/ml Propidium Iodide (Sigma, St. Louis, Mo.) was added five minutes before flow cytometry (Ballestrero et al., 2004). […]
VALUE_TYPE: viability at 2 days, 500 µM

Query block: Give its viability at 2 days, 500 µM value. Item: Cc1ccc(NC(=O)c2cccc(N(C)C)c2)cc1NC(=O)c1ccc(O)cc1
Result block: 40 to 50%

* * *

TEST_NAME: Drug toxicity assay, propidium iodide exclusion, BON cells
Type: cell-based
RECORDED_CONDITIONS: human, 63 to 500 μM, read-out: viable cells by PI exclusion
VALUE_TYPE: viability at 2 days

Query block: Give its viability at 2 days value. Item: Cc1ccc(NC(=O)c2cccc(N(C)C)c2)cc1NC(=O)c1ccc(O)cc1
Result block: ~70%

* * *

TEST_NAME: in vitro
RECORDED_CONDITIONS: human, H727 cells
VALUE_TYPE: IC50 at 72 h (nM)
Write the number in nM without appending the unit.

Query block: Give its IC50 at 72 h value. Item: COc1cccc2c1C(=O)c1c(O)c3c(c(O)c1C2=O)C[C@@](O)(C(=O)CO)C[C@@H]3O[C@H]1C[C@H](N)[C@H](O)[C@H](C)O1
Result block: 1100

Data origin, for the record: patent US20060025485A1
